test_target: EGFR double mutation L858R/T790M (H1975 cells) (Homo sapiens (Human), UniProt P00533, L858R/T790M)
method: Phospho-EGFR signaling (immunoblotting, 1 hr) in H1975 cells
Type: cell-based
experimental_parameters: signaling EC50 WT (A431) / H1975
Would you kindly list Ratio WT/mutant (H1975) for each of these molecules?

Entry C=CC(=O)Nc1cccc(Nc2nc(Nc3ccc(N4CCN(C(=O)CO)CC4)cc3OC)ncc2C(F)(F)F)c1 ; Ratio WT/mutant (H1975) = >20

Entry C=CC(=O)Nc1cccc(Oc2nc(Nc3ccc(N4CCN(C(=O)CO)CC4)cc3OC)ncc2C(F)(F)F)c1 ; Ratio WT/mutant (H1975) = >15

Entry C=CC(=O)Nc1cccc(Nc2nc(Nc3ccc(N4CCN(C(C)=O)CC4)cc3OC)ncc2Br)c1 ; Ratio WT/mutant (H1975) = >1

Entry C=CC(=O)Nc1cccc(Nc2nc(Nc3ccc(N4CCOCC4)cc3OC)ncc2C(F)(F)F)c1 ; Ratio WT/mutant (H1975) = >50

Entry C=CC(=O)Nc1cccc(Nc2nc(Nc3ccc(N4CCN(C(C)=O)[C@H](C(=O)OC)C4)cc3OC)ncc2C(F)(F)F)c1 ; Ratio WT/mutant (H1975) = >50

Entry C=CC(=O)Nc1cccc(Nc2nc(Nc3ccc(N4CCN(S(C)(=O)=O)CC4)cc3OC)ncc2Cl)c1 ; Ratio WT/mutant (H1975) = >1

Entry C=CC(=O)Nc1cccc(Nc2nc(Nc3ccc(N4CCN(S(C)(=O)=O)CC4)cc3OC)ncc2C(F)(F)F)c1 ; Ratio WT/mutant (H1975) = >30

Sourced from patent US10434101B2
